Assign DR/DR LNA to each entry below.
- PROCEDURE_DETAILS: Probe fluorescence ratio response to linolenic acid relative to ADIFAB2
- Assay type: binding
- EXPERIMENTAL_PARAMETERS: response relative to ADIFAB2
Give bare numbers.

Provide DR/DR LNA for all items below, preserving their order.
1. 18L 73L 72A (protein, listed as Rattus norvegicus, PEPTIDE (1)...(131) wild-type rat intestinal fatty acid binding protein) AFDGTWKVDRNENYEKFLEKMGINVVKRKLGAHDNLKLTITQEGNKFTVKESSNFRNIDVVFELGVDFAYSALDGTELTGTWTMEGNKLVGKFKRVDNGKELIAVREISGNELIQTYTYEGVEAKRIFKKE
2. 102N, 72A (protein, listed as Rattus norvegicus, PEPTIDE (1)...(131) wild-type rat intestinal fatty acid binding protein) AFDGTWKVDRNENYEKFMEKMGINVVKRKLGAHDNLKLTITQEGNKFTVKESSNFRNIDVVFELGVDFAYSAADGTELTGTWTMEGNKLVGKFKRVDNGKENIAVREISGNELIQTYTYEGVEAKRIFKKE

0.090
0.71

// query DR/DR LNA value for entry 31T, 72A (protein, listed as Rattus norvegicus, PEPTIDE (1)...(131) wild-type rat intestinal fatty acid binding protein) AFDGTWKVDRNENYEKFMEKMGINVVKRKLTAHDNLKLTITQEGNKFTVKESSNFRNIDVVFELGVDFAYSAADGTELTGTWTMEGNKLVGKFKRVDNGKELIAVREISGNELIQTYTYEGVEAKRIFKKE
0.510
